TARGET_OR_SYSTEM: Glc(a1-4)Glc(a1-4)Glc(a1-4)Glc
TEST_SUMMARY: glycan array binding signal (z-score within array); higher = stronger binding
SETTINGS: glycan notation: IUPAC condensed, linker removed
About 410 targets per protein were measured; listed, in parts, are those with the strongest signals and a random draw of the rest.
ASSAY_ENDPOINT: glycan array binding signal (z-score)

Reference set, count: 2
BINDER	ENDPOINT_VALUE
SBD-G4S3-SBD (protein) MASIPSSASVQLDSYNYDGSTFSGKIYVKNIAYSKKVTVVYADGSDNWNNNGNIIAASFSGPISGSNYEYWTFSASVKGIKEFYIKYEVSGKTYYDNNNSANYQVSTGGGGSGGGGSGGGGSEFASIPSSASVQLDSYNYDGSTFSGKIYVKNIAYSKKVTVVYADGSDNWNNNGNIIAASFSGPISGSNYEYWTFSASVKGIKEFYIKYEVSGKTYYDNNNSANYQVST	5.44
SfaEH (Escherichia coli), Q1RDG5 (protein) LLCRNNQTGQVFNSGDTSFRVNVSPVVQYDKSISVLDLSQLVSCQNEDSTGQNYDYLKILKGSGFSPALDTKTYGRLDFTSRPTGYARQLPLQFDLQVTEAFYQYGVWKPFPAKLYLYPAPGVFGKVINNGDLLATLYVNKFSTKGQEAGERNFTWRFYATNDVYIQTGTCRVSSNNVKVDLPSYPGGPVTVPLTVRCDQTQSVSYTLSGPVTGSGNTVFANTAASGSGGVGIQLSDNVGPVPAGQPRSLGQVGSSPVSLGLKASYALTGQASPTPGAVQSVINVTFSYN	-0.651

Moving on to the next binder.
In: Fill in: glycan array binding signal (z-score) of LF82 (Escherichia coli) (protein) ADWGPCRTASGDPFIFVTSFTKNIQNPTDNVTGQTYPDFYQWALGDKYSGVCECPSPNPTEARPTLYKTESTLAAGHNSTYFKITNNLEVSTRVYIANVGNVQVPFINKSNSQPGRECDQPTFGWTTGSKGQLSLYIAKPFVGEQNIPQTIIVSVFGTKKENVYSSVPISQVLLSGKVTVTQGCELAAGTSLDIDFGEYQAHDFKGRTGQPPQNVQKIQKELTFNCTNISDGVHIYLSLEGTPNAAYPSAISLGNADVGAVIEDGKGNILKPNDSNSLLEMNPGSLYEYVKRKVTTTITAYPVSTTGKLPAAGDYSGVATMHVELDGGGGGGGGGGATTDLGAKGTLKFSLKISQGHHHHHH is ___
Out: 1.21
